Sourced from patent US20240254082A1

Property: inhibition at 1 µM; scope: individual molecules
# tgt: PDE7A (Homo sapiens)
# Sequence (Q13946 whole entry, species assumed): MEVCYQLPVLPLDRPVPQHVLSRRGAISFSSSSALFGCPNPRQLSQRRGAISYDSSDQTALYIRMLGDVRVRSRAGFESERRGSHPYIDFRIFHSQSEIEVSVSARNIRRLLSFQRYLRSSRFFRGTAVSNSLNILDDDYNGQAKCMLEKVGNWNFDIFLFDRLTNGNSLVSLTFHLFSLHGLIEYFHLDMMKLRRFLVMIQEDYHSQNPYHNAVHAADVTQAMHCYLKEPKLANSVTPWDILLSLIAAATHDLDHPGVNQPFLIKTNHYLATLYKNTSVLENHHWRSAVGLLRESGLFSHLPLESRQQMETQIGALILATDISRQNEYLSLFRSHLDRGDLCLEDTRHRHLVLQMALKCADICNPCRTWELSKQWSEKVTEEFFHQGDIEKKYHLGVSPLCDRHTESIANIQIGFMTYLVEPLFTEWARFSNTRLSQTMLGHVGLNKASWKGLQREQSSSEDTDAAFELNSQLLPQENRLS
# protocolSummary: Selective inhibitory activity assay, PDE7A
# Assay type: biochemical
# protocolConditions: 1 μM; read-out: Inhibition rate (%) of PDE7A
Quick reminder: number only, in %, skip the unit.

Solved cases (6 shown):
CCCCCc1ccc(NC(=O)CCCCl)c2c1C(=O)N([C@H](CS(C)(=O)=O)c1ccc(OC)c(OCC)c1)C2=O    0
CCCC#Cc1ccc(NC(C)=O)c2c1C(=O)N([C@H](CS(C)(=O)=O)c1ccc(OC)c(OCC)c1)C2=O    3.87
CCOc1cc([C@@H](CS(C)(=O)=O)N2C(=O)c3cccc(NC(C)=O)c3C2=O)ccc1OC [Example 0, Apremilast, reference compound]    9.41
CCCCCc1ccc(NC(=O)CCCl)c2c1C(=O)N([C@H](CS(C)(=O)=O)c1ccc(OC)c(OCC)c1)C2=O    0
CCCCc1ccc(NC(=O)CCCCl)c2c1C(=O)N([C@H](CS(C)(=O)=O)c1ccc(OC)c(OCC)c1)C2=O    2.21
CCCCCc1ccc(NC(=O)CCl)c2c1C(=O)N([C@H](CS(C)(=O)=O)c1ccc(OC)c(OCC)c1)C2=O    4.98

We now examine a further molecule.
Challenge: Entry under review: "CCCCCc1ccc(NC(=O)CC)c2c1C(=O)N([C@H](CS(C)(=O)=O)c1ccc(OC)c(OCC)c1)C2=O" . Reported inhibition at 1 µM?
Response given: 0

====

# inhibition at 10 µM listing for each entry below
# tgt: PDE10A1 (Homo sapiens, UniProt Q9Y233)
# Sequence (Q9Y233 1-779 isoform Q9Y233-1, species assumed): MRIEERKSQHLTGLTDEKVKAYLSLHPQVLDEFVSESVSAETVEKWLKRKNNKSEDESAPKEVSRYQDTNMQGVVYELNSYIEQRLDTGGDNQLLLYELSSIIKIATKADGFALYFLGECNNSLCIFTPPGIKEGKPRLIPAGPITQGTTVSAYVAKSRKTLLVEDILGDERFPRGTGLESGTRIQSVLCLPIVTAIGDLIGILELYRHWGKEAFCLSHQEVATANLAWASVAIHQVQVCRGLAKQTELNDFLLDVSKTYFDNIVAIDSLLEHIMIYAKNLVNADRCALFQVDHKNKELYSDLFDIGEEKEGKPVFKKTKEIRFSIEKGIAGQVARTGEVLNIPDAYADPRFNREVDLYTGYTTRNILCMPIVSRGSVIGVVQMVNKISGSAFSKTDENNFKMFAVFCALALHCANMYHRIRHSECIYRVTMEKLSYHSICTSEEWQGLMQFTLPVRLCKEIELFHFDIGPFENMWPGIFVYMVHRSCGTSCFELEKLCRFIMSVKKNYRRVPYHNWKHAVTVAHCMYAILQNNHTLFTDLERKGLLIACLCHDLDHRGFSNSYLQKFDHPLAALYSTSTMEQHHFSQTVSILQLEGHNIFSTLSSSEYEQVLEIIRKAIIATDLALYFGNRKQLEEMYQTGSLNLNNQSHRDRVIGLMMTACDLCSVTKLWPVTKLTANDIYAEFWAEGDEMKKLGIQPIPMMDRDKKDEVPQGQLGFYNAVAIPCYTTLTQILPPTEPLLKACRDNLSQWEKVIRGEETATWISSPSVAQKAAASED
# protocolSummary: Selective inhibitory activity assay, PDE10A1
# Format: biochemical
# protocolConditions: 10 μM; read-out: Inhibition rate (%) of PDE10A1
Quote the value and follow it with the unit of measurement.

Solved entries (count: 2):
CCCCCc1ccc(NC(=O)CCCl)c2c1C(=O)N([C@H](CS(C)(=O)=O)c1ccc(OC)c(OCC)c1)C2=O    11.4%
CCCCCc1ccc(NC(=O)CC)c2c1C(=O)N([C@H](CS(C)(=O)=O)c1ccc(OC)c(OCC)c1)C2=O    -26.7%

Challenge: Could you tell me which inhibition at 10 µM is on file for "C=CC(=O)Nc1ccc(CCCCC)c2c1C(=O)N([C@H](CS(C)(=O)=O)c1ccc(OC)c(OCC)c1)C2=O" ?
Response given: 16.1%

====

# tgt: PDE5A1 (Homo sapiens)
# protocolSummary: Selective inhibitory activity assay, PDE5A1
# Type: biochemical
# protocolConditions: 10 μM; read-out: Inhibition rate (%) of PDE5A1
Each entry below lists one item and its recorded inhibition at 10 µM value.
The answer consists of two parts: a number and, after it, its unit.

Example entries and their recorded answers appear below.
CCCCc1ccc(NC(=O)CCCCl)c2c1C(=O)N([C@H](CS(C)(=O)=O)c1ccc(OC)c(OCC)c1)C2=O [Example 27]    8.14%
CCCCCc1ccc(NC(C)=O)c2c1C(=O)N([C@H](CS(C)(=O)=O)c1ccc(OC)c(OCC)c1)C2=O [Example 9]    5.74%

The record that follows has no inhibition at 10 µM shown yet.
Challenge: GET /values?readout=inhibition at 10 µM&item= CCCCCc1ccc(NC(=O)CCCl)c2c1C(=O)N([C@H](CS(C)(=O)=O)c1ccc(OC)c(OCC)c1)C2=O [Example 24]
Response given: 11.5%
